The origin of these recorded values is PubChem BioAssay (Tox21).

procedure summary: qHTS assay to identify small molecule agonists of the endoplasmic reticulum stress response signaling pathway - cell viability counter screen (AID 1159517);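 further: HeLa cells carrying an ER stress response element beta-lactamase reporter; nearly all actives have a fitted effect of over 50% in size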
conditions: ESRE-bla HeLa viability, CellTiter-Glo luminescence, 5 h; series mostly up to 61 µM
Records with an inconclusive call do not appear. Active and inactive are the calls of the source. The call rests on the fitted dose curve.
Could you please pick one outcome from this set? 1 (active), -1 (inactive)

Consider the worked cases shown below.
Kindly provide the recorded test outcome for the following compound: CC(C)(C)NCC(O)COc1cccc2c1C[C@H](O)[C@H](O)C2 (some centres not stated)
-1

Kindly provide the recorded test outcome for the following compound: `CCCCOCCOC(=O)c1cccnc1`
-1

Kindly provide the recorded test outcome for the following compound: `CCCCCCCC/C=C/C(=O)O`
-1

Kindly provide the recorded test outcome for the following compound: `CC(C)(C)S`
-1

Kindly provide the recorded test outcome for the following compound: C1=CCC2CC=CC2C1 (configuration not stated)
-1

Others:
Kindly provide the recorded test outcome for the following compound: `Cc1ccc2nc(N)[nH]c(=O)c2c1Sc1ccncc1`
-1

----------
procedure summary: qHTS assay to identify small molecule agonists of the estrogen receptor beta (ER-beta) signaling pathway - cell viability counter screen (AID 1259380); further: nearly all actives have a fitted effect of over 30% in size
conditions: ER-beta-bla HEK293T viability, CellTiter-Glo luminescence, 16 h; series mostly up to 92.4 µM
Records with an inconclusive call do not appear. Active and inactive are the calls of the source. The call rests on the fitted dose curve; in most records, active means well fitted cell-killing curve with a large enough effect in the repeat runs; inconclusive means weak or mixed curves, or effect the other way; inactive means flat fitted curve, though single readings scatter.
Could you please pick one outcome from this set? active, inactive

Kindly provide the recorded test outcome for the following compound: `O=P(O)(O)Oc1ccccc1`
inactive

Kindly provide the recorded test outcome for the following compound: `Nc1cccc2c(N)cccc12`
active

Kindly provide the recorded test outcome for the following compound: `CCc1ccc(C)cc1`
inactive

Kindly provide the recorded test outcome for the following compound: `Cc1cn([C@H]2C[C@H](F)[C@@H](CO)O2)c(=O)[nH]c1=O`
inactive

Others:
Kindly provide the recorded test outcome for the following compound: `CCN(CC)CC(=O)Nc1c(C)cccc1C(=O)OC`
inactive

Kindly provide the recorded test outcome for the following compound: `CCN(CC)CCOc1ccccc1C(=O)CCc1ccccc1`
active

Kindly provide the recorded test outcome for the following compound: CC(C)(C)C1(CCc2ccc(Cl)cc2)CO1 (configuration not stated)
inactive

----------
procedure summary: qHTS assay to identify small molecule antagonists of the retinoic acid receptor (RAR) signaling pathway (AID 1159552; further: nearly all actives have a fitted effect of over 50% in size)
conditions: C3RL4 RARE luciferase reporter, retinol-stimulated, 6 h; series mostly up to 92.4 µM
Inconclusive results are not listed. Active and inactive are the calls of the source. Calls follow the shape of the dose curve; as a rule, active = well fitted inhibition curve with a large enough effect in the repeat runs; inconclusive = weak or mixed curves, or effect the other way; inactive = no such curve, though single readings can be large or run the other way.
measurement type: outcome

Name the recorded outcome of the item c1ccc(CNc2ncnc3c2ncn3C2CCCCO2)cc1 (configuration not stated) in your answer.
inactive

Name the recorded outcome of the item `COc1cc(S(=O)(=O)Nc2ccccc2)c(OC)cc1N` in your answer.
inactive

Name the recorded outcome of the item `O=C1[C@@H]2[C@H]3CC[C@H](C3)[C@@H]2C(=O)N1CCCCN1CCN(c2ncccn2)CC1` in your answer.
inactive

Name the recorded outcome of the item CCC1CCC(CCC(=O)O)C1 (configuration not stated) in your answer.
inactive

Name the recorded outcome of the item CCCCCCCCCCCCCC(=O)OCC(O)CO (configuration not stated) in your answer.
inactive

Name the recorded outcome of the item `CCCCCCCCCCCSCC(=O)O` in your answer.
inactive

From here, focus on the item given below.
Name the recorded outcome of the item `C1CCCCC1` in your answer.
inactive

----------
procedure summary: A CellTox Green Cytotoxicity Assay to monitor cytotoxicity in HEK293 cells - 40 hour (AID 1224871); further: nearly all actives have a fitted effect of over 45% in size
conditions: CellTox Green fluorescence; series mostly up to 76.8 µM
Results filed as inconclusive are left out. The source made the active and inactive calls. Calls come from the whole dose curve; as a rule, active = well fitted activation curve with a large enough effect in the repeat runs; inconclusive = weak or mixed curves; inactive = flat fitted curve, though single readings scatter.
Could you please pick one outcome from this set? class 1 for active, class 0 for inactive

Consider the worked cases shown below.
Kindly provide the recorded test outcome for the following compound: `COc1cc(NCc2ccc3nc(N)nc(N)c3c2C)cc(OC)c1OC`
class 0

Kindly provide the recorded test outcome for the following compound: `CC(C)(C)CCCCCCOC(=O)c1ccccc1C(=O)OCCCCCCC(C)(C)C`
class 0

Kindly provide the recorded test outcome for the following compound: `Cc1cn([C@H]2C[C@H](F)[C@@H](CO)O2)c(=O)[nH]c1=O`
class 0

Kindly provide the recorded test outcome for the following compound: `CCN(CC)c1ccc(C(=C2C=CC(=[N+](CC)CC)C=C2)c2ccc(S(=O)(=O)O)cc2S(=O)(=O)[O-])cc1`
class 0

Others:
Kindly provide the recorded test outcome for the following compound: `O=C(O)CNC(=O)c1ccccc1I`
class 0

Kindly provide the recorded test outcome for the following compound: `O=c1[nH]c2cc(C(F)(F)F)c(N3CCOCC3)cc2n(CP(=O)(O)O)c1=O`
class 0
